assay: chemical recovery from spiked human plasma; higher = better extraction; details: pooled human plasma; extraction method: SPE only (HLB 96-well), PES comparison experiment
endpoint: chemical recovery
Dear colleague, please send the value followed by its unit.

{"compound": "CCOCCN(C(=O)CCl)C(=C(C)C)c1ccccc1", "value-measured": "49.5%"}
{"compound": "OC[C@H]1O[C@H](O[C@]2(CCl)O[C@H](CCl)[C@@H](O)[C@@H]2O)[C@H](O)[C@@H](O)[C@H]1Cl", "value-measured": "58.3%"}
{"compound": "COc1ccc2c(c1)c(CC(=O)O)c(C)n2C(=O)c1ccc(Cl)cc1", "value-measured": "31%"}
{"compound": "Cc1ccc(-c2cc(C(F)(F)F)nn2-c2ccc(S(N)(=O)=O)cc2)cc1", "value-measured": "47.6%"}
{"compound": "COc1ccc(C(=O)c2ccccc2)c(O)c1", "value-measured": "33.1%"}
{"compound": "CCOC(=O)C(C)(C)Oc1ccc(Cl)cc1 [Clofibrate]", "value-measured": "44.4%"}
{"compound": "CCOC(=O)c1cn2nc(OP(=S)(OCC)OCC)cc2nc1C", "value-measured": "40.2%"}
{"compound": "COc1cc(OC)nc(NC(=O)NS(=O)(=O)c2ncccc2C(=O)N(C)C)n1", "value-measured": "49.3%"}

Given Clc1ccc(-c2cc(Cl)c(Cl)cc2Cl)cc1Cl , state its recorded chemical recovery.
3.8%

* * *

test: chemical recovery from spiked human plasma; higher = better extraction; conditions: pooled human plasma; extraction method: solvent precipitation (ACN + hexane)
Kindly state chemical recovery for each of the entries shown.
One number for each entry, in %.

{"molecule": "COC(=O)CC(O)(CC(=O)OC)C(=O)OC [Trimethylcitrate]", "chemical recovery (%)": 12.5}
{"molecule": "CCCCCCCC[N+](C)(C)C [Trimethyloctylammonium]", "chemical recovery (%)": 72.1}
{"molecule": "CC(=O)c1cc(C(C)(C)C)c(O)c(C(C)(C)C)c1 [3,5-Di-tert-butyl-4'-hydroxyacetophenone]", "chemical recovery (%)": 42.1}

For each of the items listed, what is its chemical recovery?
1. N=C(N)NC(=O)Cc1c(Cl)cccc1Cl [Guanfacine]
2. N=C(NCCCCCCNC(=N)NC(=N)Nc1ccc(Cl)cc1)NC(=N)Nc1ccc(Cl)cc1 [Chlorohexidine]
3. CCC(C)n1c(=O)[nH]c(C)c(Br)c1=O (centres undefined) [Bromacil]
4. OC(c1ccc(Cl)cc1)(c1ccc(Cl)cc1)C(Cl)(Cl)Cl [Dicofol]
5. C[Si](Cn1cncn1)(c1ccc(F)cc1)c1ccc(F)cc1 [Flusilazole]

1: 57.9; 2: 54.5; 3: 72.7; 4: 23.1; 5: 70.1

Given COCCN(C(=O)C(=O)O)c1c(C)cccc1C [Dimethachlor OA] , state its recorded chemical recovery.
56.8

* * *

test: chemical recovery into PDMS from spiked human plasma; higher = better extraction; details: pooled human plasma; extraction method: PES with PDMS; equilibration time (d): 1
Kindly state chemical recovery into PDMS for each of the entries shown.
Answers are plain numbers, in %.

{"compound": "CC1(C)[C@H](C=C(Cl)Cl)[C@H]1C(=O)OCc1c(F)c(F)cc(F)c1F [Transfluthrin]", "measurement-unit": "%", "chemical recovery into PDMS": 79.7}
{"compound": "NC(=O)N1c2ccccc2C=Cc2ccccc21 [Carbamazepine]", "measurement-unit": "%", "chemical recovery into PDMS": 22.2}

Please examine the following record next.
Given CN(C)C(=O)Nc1ccc(Cl)c(Cl)c1 , state its recorded chemical recovery into PDMS.
32.6
